The following sequences are listed with their measured PBM binding z-score values.
Test system: LXRb homodimer (NR concentration 270 nM)
Assay: PBM binding z-score (relative to random genomic background probes); higher = stronger binding; sequences stand for … in GC…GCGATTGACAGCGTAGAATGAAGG
Output spec: single numeric token, no unit.

Worked set:
Requested read-out: PBM binding z-score. Entry: CGAACTAGGTCATTGACAGGAAAGTGAATAGTAA -0.078

Requested read-out: PBM binding z-score. Entry: TGAATGAGGTTAAAGATCAGCGAACGTGGCGTCG 0.0932

Requested read-out: PBM binding z-score. Entry: ATCTCTAGGTAACCAAGTTCACTGAATGCCGAAC 1.09

Requested read-out: PBM binding z-score. Entry: TGTCAAAGTGCAAAGGTAACGTAAGTATCCACAC -0.151

Requested read-out: PBM binding z-score. Entry: TTACCAAGGTGAAAGGTCTTTGATGCACGCCTTG -0.549

Others:
Requested read-out: PBM binding z-score. Entry: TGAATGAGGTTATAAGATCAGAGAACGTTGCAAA -0.296

Requested read-out: PBM binding z-score. Entry: CCTAGTTGGTCCAGGTCACACACGCTATAGGTAC 0.771

Requested read-out: PBM binding z-score. Entry: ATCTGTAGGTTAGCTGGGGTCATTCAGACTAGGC 1.64

Requested read-out: PBM binding z-score. Entry: GTACCAAGGTGAATAGGTCGTTCATGAGTAGGCG -0.594

Requested read-out: PBM binding z-score. Entry: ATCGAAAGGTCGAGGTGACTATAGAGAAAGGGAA 0.167

Requested read-out: PBM binding z-score. Entry: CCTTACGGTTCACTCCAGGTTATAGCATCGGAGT 0.998

Requested read-out: PBM binding z-score. Entry: ATAATGAGGTTATTAAGATCAGGGAATTGCGGTC 1.07

Requested read-out: PBM binding z-score. Entry: GCTCGGAGGACAAGGTCAGAGCGTTGTCCGTAGA -0.608

Requested read-out: PBM binding z-score. Entry: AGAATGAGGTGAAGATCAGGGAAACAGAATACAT -0.114

Requested read-out: PBM binding z-score. Entry: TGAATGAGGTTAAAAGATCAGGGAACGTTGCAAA -0.114

Requested read-out: PBM binding z-score. Entry: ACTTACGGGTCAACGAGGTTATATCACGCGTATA 1.09

Requested read-out: PBM binding z-score. Entry: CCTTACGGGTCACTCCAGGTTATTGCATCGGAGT 0.61

Requested read-out: PBM binding z-score. Entry: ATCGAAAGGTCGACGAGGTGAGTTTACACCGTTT 0.407
